# System: AR42J tumor xenografts
# assay.name: Biodistribution of 99mTc-labeled compounds in nude mice with AR42J tumor xenografts
# Assay type: in vivo
# conditions.used: tumor to blood ratio; 99mTc-labeled compound, 90 minutes post-injection
experimental.readout: T:B
Numbers only.

[[record]]
smiles = "C[C@@H](O)[C@@H]1NC(=O)[C@H](CCCCN)NC(=O)[C@@H](Cc2c[nH]c3ccccc23)NC(=O)[C@H](Cc2ccc(O)cc2)NC(=O)[C@H](CCSCC(=O)NCCC[C@H](N)C(=O)NCC(=O)N[C@@H](CS)C(N)=O)N(C)C(=O)[C@H](Cc2ccccc2)NC1=O"
value_measured = 29


Required: T:B, one value per compound below.
1. C[C@@H](O)[C@@H]1NC(=O)[C@H](CCCCN)NC(=O)[C@@H](Cc2c[nH]c3ccccc23)NC(=O)[C@H](Cc2ccc(O)cc2)NC(=O)[C@H](CCSCC(=O)NC[C@H](N)C(=O)N[C@@H](Cc2ccc(N)cc2)C(=O)N[C@@H](CS)C(=O)N[C@H](CO)[C@@H](C)O)N(C)C(=O)[C@H](Cc2ccccc2)NC1=O
2. C[C@@H](O)[C@@H]1NC(=O)[C@H](CCCCN)NC(=O)[C@@H](Cc2c[nH]c3ccccc23)NC(=O)[C@H](Cc2ccc(O)cc2)NC(=O)[C@H](CCSCC(=O)NC[C@H](N)C(=O)N[C@@H](CCCN)C(=O)N[C@@H](CS)C(=O)N[C@H](CO)[C@@H](C)O)N(C)C(=O)[C@H](Cc2ccccc2)NC1=O
3. C[C@@H](O)[C@@H]1NC(=O)[C@H](CCCCN)NC(=O)[C@@H](Cc2c[nH]c3ccccc23)NC(=O)[C@H](Cc2ccc(O)cc2)NC(=O)[C@H](CCSCC(=O)N[C@@H](CO)C(=O)N[C@@H](CO)C(=O)N[C@@H](CS)C(=O)NCCOCCOCCN)N(C)C(=O)[C@H](Cc2ccccc2)NC1=O

Marked response:
[81, 24, 44]

Required: T:B, one value per compound below.
1. C[C@@H](O)[C@@H]1NC(=O)[C@H](CCCCN)NC(=O)[C@@H](Cc2c[nH]c3ccccc23)NC(=O)[C@H](Cc2ccc(O)cc2)NC(=O)[C@H](CCSCC(=O)NC[C@H](N)C(=O)N[C@@H](CCN)C(=O)N[C@@H](CS)C(=O)NC(CO)CO)N(C)C(=O)[C@H](Cc2ccccc2)NC1=O
2. C[C@@H](O)[C@H](NC(=O)CSCC[C@H]1C(=O)N[C@@H](Cc2ccc(O)cc2)C(=O)N[C@H](Cc2c[nH]c3ccccc23)C(=O)N[C@@H](CCCCN)C(=O)N[C@@H]([C@@H](C)O)C(=O)N[C@@H](Cc2ccccc2)C(=O)N1C)C(=O)NCC(=O)NCC(=O)N[C@@H](CS)C(N)=O

Marked response:
1: 30; 2: 30

Exam item: Param item = `C[C@@H](O)[C@@H]1NC(=O)[C@H](CCCCN)NC(=O)[C@@H](Cc2c[nH]c3ccccc23)NC(=O)[C@H](Cc2ccc(O)cc2)NC(=O)[C@H](CCSCC(=O)NC[C@H](N)C(=O)N[C@@H](Cc2c[nH]cn2)C(=O)N[C@@H](CS)C(=O)N[C@H](CO)[C@@H](C)O)N(C)C(=O)[C@H](Cc2ccccc2)NC1=O` ; retrieve measured T:B.
Marked response: 29

----------
# assay.name: Biodistribution of 99mTc-labeled compounds in nude mice with AR42J tumor xenografts
# Format: in vivo
# conditions.used: nude, mouse, gastrointestinal tract, iv, total radioactivity; 99mTc-labeled compound, i.v., 90 minutes post-injection; read-out: GI
*1 amine or outer side, *2 acyl side, *3 side chain or, on linkers, in order; H or OH if unused. Where a SMILES comes first, the peptide text is derived from it. Bridges are numbered along the chain shown (N, C = ends). Roman numbers before positions name the chains, in order. [ ]: non-standard residue; d: D form. ξ: configuration not given here. Phe(4-NH2) = Nc1ccc(C[C@H](N)C(=O)O)cc1; NMehCys = CN[C@@H](CCS)C(=O)O; Thr(3ξ) = CC(O)[C@H](N)C(=O)O; Dap = NC[C@H](N)C(=O)O; X1 = O=C(C[*:1])[*:2]
experimental.readout: tissue uptake dose at 1.5 h (%ID)
Numbers only, in %ID.

Exam item: Param item = CC(O)[C@H](NC(=O)[C@H](CS)NC(=O)[C@H](Cc1ccc(N)cc1)NC(=O)[C@@H](N)CNC(=O)CSCC[C@H]1C(=O)N[C@@H](Cc2ccc(O)cc2)C(=O)N[C@H](Cc2c[nH]c3ccccc23)C(=O)N[C@@H](CCCCN)C(=O)N[C@@H](C(C)O)C(=O)N[C@@H](Cc2ccccc2)C(=O)N1C)C(=O)N[C@@H](CO)C(=O)O (stereo partly shown) (I: cyclo(F[NMehCys]Y[dW]K[Thr(3ξ)]) / II: H-[Dap][Phe(4-NH2)]C[Thr(3ξ)]S-OH; linker I:2-II:1 via X1) ; retrieve measured tissue uptake dose at 1.5 h.
Marked response: 8

----------
Please respond with reported T:M for every item in the list.
# System: AR42J tumor xenografts
# assay.name: Biodistribution of 99mTc-labeled compounds in nude mice with AR42J tumor xenografts
# Assay type: in vivo
# conditions.used: tumor to muscle ratio; 99mTc-labeled compound, 90 minutes post-injection
*1 amine or outer side, *2 acyl side, *3 side chain or, on linkers, in order; H or OH if unused. Where a SMILES comes first, the peptide text is derived from it. Bridges are numbered along the chain shown (N, C = ends). Roman numbers before positions name the chains, in order. [ ]: non-standard residue; d: D form. ξ: configuration not given here. Phe(4-NH2) = Nc1ccc(C[C@H](N)C(=O)O)cc1; NMehCys = CN[C@@H](CCS)C(=O)O; Thr(3ξ) = CC(O)[C@H](N)C(=O)O; Dap = NC[C@H](N)C(=O)O; X1 = O=C(C[*:1])[*:2]
Numbers only.

Use the examples below as a reference point.
[[record]]
molecule = "C[C@@H](O)[C@@H]1NC(=O)[C@H](CCCCN)NC(=O)[C@@H](Cc2c[nH]c3ccccc23)NC(=O)[C@H](Cc2ccc(O)cc2)NC(=O)[C@H](CCSCC(=O)NC[C@H](N)C(=O)N[C@@H](CCCCN)C(=O)N[C@@H](CS)C(=O)N[C@H](CO)[C@@H](C)O)N(C)C(=O)[C@H](Cc2ccccc2)NC1=O"
value_measured = 104

[[record]]
molecule = "CC(O)[C@H](NC(=O)[C@H](CS)NC(=O)[C@H](Cc1ccc(N)cc1)NC(=O)[C@@H](N)CNC(=O)CSCC[C@H]1C(=O)N[C@@H](Cc2ccc(O)cc2)C(=O)N[C@H](Cc2c[nH]c3ccccc23)C(=O)N[C@@H](CCCCN)C(=O)N[C@@H](C(C)O)C(=O)N[C@@H](Cc2ccccc2)C(=O)N1C)C(=O)N[C@@H](CO)C(=O)O (stereo partly drawn) (I: cyclo(F[NMehCys]Y[dW]K[Thr(3ξ)]) / II: H-[Dap][Phe(4-NH2)]C[Thr(3ξ)]S-OH; linker I:2-II:1 via X1)"
value_measured = 127


Exam item: Param item = `C[C@@H](O)[C@@H]1NC(=O)[C@H](CCCCN)NC(=O)[C@@H](Cc2c[nH]c3ccccc23)NC(=O)[C@H](Cc2ccc(O)cc2)NC(=O)[C@H](CCSCC(=O)NC[C@H](N)C(=O)N[C@@H](CO)C(=O)N[C@@H](CS)C(=O)N[C@H](CO)[C@@H](C)O)N(C)C(=O)[C@H](Cc2ccccc2)NC1=O` ; retrieve measured T:M.
Marked response: 144

----------
Please respond with reported pIC50 for every item in the list.
# System: SSTRs, NCI-H69 membranes
# assay.name: [125I]SST-14 binding to NCI-H69 cell membranes (SSTR affinity)
# Design: species or system human
# conditions.used: inhibition of [125I]SST-14 binding; two-site fit; read-out: IC50 Values for Uncomplexed Compounds, NCI-H69 (first value)
One number for each entry, as −log10 of the molar value.

Use the examples below as a reference point.
[[record]]
smiles = "C[C@@H](O)[C@H](NC(=O)CSCC[C@H]1C(=O)N[C@@H](Cc2ccc(O)cc2)C(=O)N[C@H](Cc2c[nH]c3ccccc23)C(=O)N[C@@H](CCCCN)C(=O)N[C@@H]([C@@H](C)O)C(=O)N[C@@H](Cc2ccccc2)C(=O)N1C)C(=O)NCC(=O)NCC(=O)N[C@@H](CS)C(N)=O"
value_measured = 8.79

[[record]]
smiles = "C[C@@H](O)[C@@H]1NC(=O)[C@H](CCCCN)NC(=O)[C@@H](Cc2c[nH]c3ccccc23)NC(=O)[C@H](Cc2ccc(O)cc2)NC(=O)[C@H](CCSCC(=O)NC[C@H](N)C(=O)N[C@@H](CCCN)C(=O)N[C@@H](CS)C(=O)N[C@H](CO)[C@@H](C)O)N(C)C(=O)[C@H](Cc2ccccc2)NC1=O"
value_measured = 9.30


Continue with the next compound.
Exam item: Param item = `C[C@@H](O)[C@@H]1NC(=O)[C@H](CCCCN)NC(=O)[C@@H](Cc2c[nH]c3ccccc23)NC(=O)[C@H](Cc2ccc(O)cc2)NC(=O)[C@H](CCSCC(=O)NC[C@H](N)C(=O)N[C@@H](Cc2c[nH]cn2)C(=O)N[C@@H](CS)C(=O)N[C@H](CO)[C@@H](C)O)N(C)C(=O)[C@H](Cc2ccccc2)NC1=O` ; retrieve measured pIC50.
Marked response: 9.06

All figures here come from patent US6358491B1.
